assay: NS1 protein of Zika virus - qHTS assay to identify small molecule inhibitors in human HEK 293 cells (AID 1347053); conditions: HEK293 ZIKV MR766 infection, NS1 TR-FRET, 24 h; series mostly up to 46.1 µM; note: nearly all actives have a fitted effect of over 55% in size
Inconclusive results are not listed. Active and inactive are the calls of the source. Calls come from the whole dose curve; as a rule, active = well fitted inhibition curve with a large enough effect; inconclusive = small, poorly fitted or top-dose-only effect; inactive = no such curve, though single readings can be large or run the other way.
Entry note: the call must match one of True (active), False (inactive)

[in] Outcome logged for `C[C@@H]1O[C@@H](O[C@@H]2C=C3CC[C@@H]4[C@@H](CC[C@]5(C)[C@H](c6ccc(=O)oc6)CC[C@@]45O)[C@@]3(C)CC2)[C@H](O)[C@H](O)[C@H]1O` in this assay:
[out] True

[in] Same thing, different compound: `CC=C(C)C(=O)O[C@H]1C(C)=C2[C@@H]3OC(=O)[C@@](C)(O)[C@@]3(O)[C@@H](OC(=O)CCC)C[C@](C)(OC(C)=O)[C@@H]2[C@@H]1OC(=O)CCCCCCC`
[out] True

[in] Same thing, different compound: NC(=O)CN1CC(O)CC1=O (configuration not stated)
[out] False

[in] Same thing, different compound: COc1ccc2c(c1)[C@]13CCCCC1C(C2)N(C)CC3 (some centres not stated)
[out] False

[in] Same thing, different compound: `C[C@@H]1CC[C@@]2(OC1)O[C@H]1C[C@H]3[C@@H]4CC=C5C[C@@H](O[C@@H]6O[C@H](CO)[C@@H](O[C@@H]7O[C@@H](C)[C@H](O)[C@@H](O)[C@@H]7O)[C@H](O)[C@@H]6O[C@@H]6O[C@@H](C)[C@H](O)[C@@H](O)[C@@H]6O)CC[C@]5(C)[C@@H]4CC[C@]3(C)[C@@H]1[C@H]2C`
[out] True

[in] Same thing, different compound: `COc1ccc(N(C(=O)Oc2c(C)cccc2C)c2ccnc(Nc3ccc(N4CCN(C)CC4)cc3)n2)c(OC)c1`
[out] False

[in] Same thing, different compound: `O=C(O)COc1ccccc1`
[out] False

* * *

experiment: Quantitative High-Throughput drug screen in 47 multiple myeloma cell lines against the NCATS MIPE library collection: MMM1_PLB cell viability assay (AID 1918976); conditions: MMM1 myeloma cells viability, CellTiter-Glo, 48 h; series mostly up to 45.8 µM; note: nearly all actives have a fitted effect of over 35% in size
Records with an inconclusive call do not appear. Calls of active or inactive are those of the source. The call rests on the fitted dose curve; in most records, active means well fitted cell-killing curve with a large enough effect; inconclusive means small, poorly fitted or top-dose-only effect, or effect the other way; inactive means no such curve, though single readings can be large or run the other way.
Entry note: the call must match one of YES for active, NO for inactive

[in] Outcome logged for CO[C@H]1CCC(O[C@H]2C[C@H]([C@]3(C)CC[C@]4(C[C@H](O)[C@@H](C)[C@@H]([C@@H](C)C=C(C)C(=O)[C@H](C)C[C@H](C)C(=O)O)O4)O3)O[C@]3(O[C@@H]([C@H]4O[C@@](O)(CO)[C@H](C)C[C@H]4C)C[C@H]3C)[C@H]2C)O[C@H]1C (some centres undefined) in this assay:
[out] YES

[in] Same thing, different compound: `C=CCON=C(C[C@H]1O[C@@H]2O[C@]3(C)CC[C@@H]4[C@H](C)CC[C@@H]([C@H]1C)[C@@]24OO3)[C@H]1O[C@@H]2O[C@]3(C)CC[C@H]4[C@H](C)CC[C@@H]([C@@H]1C)[C@@]24OO3`
[out] YES

[in] Same thing, different compound: O=S(=O)(CC1CS1)c1ccc(Oc2ccccc2)cc1 (centres undefined)
[out] YES

[in] Same thing, different compound: `Cc1ccccc1-n1c(Cn2ncc3c(N)ncnc32)nc2cccc(C)c2c1=O`
[out] NO

[in] Same thing, different compound: `O=c1[nH]c2ccccc2n1C1CCN(Cc2ccc(-c3[nH]c4cc5ncnc5cc4nc3-c3ccccc3)cc2)CC1`
[out] YES

[in] Same thing, different compound: `CC[C@@H]1[C@@H](C)O[C@@](O)([C@@H](C)[C@H](O)[C@H](C)[C@H]2OC(=O)C=CC=C[C@@H](C)[C@@H]([C@@H](C)[C@@H](O)[C@H](C)[C@@]3(O)C[C@H](O[C@H]4C[C@H](O)[C@H](O)[C@H](C)O4)[C@H](CC)[C@@H](C)O3)OC(=O)C=CC=C[C@@H]2C)C[C@H]1O[C@H]1C[C@H](O)[C@H](O)[C@H](C)O1`
[out] YES

[in] Same thing, different compound: `Cc1ccccc1-n1c(Cn2cnc3c(N)ncnc32)nc2cccc(C)c2c1=O`
[out] YES

[in] Same thing, different compound: `CC=C(C)C(=O)O[C@H]1C(C)=C2[C@@H]3OC(=O)[C@@](C)(O)[C@@]3(O)[C@@H](OC(=O)CCC)C[C@](C)(OC(C)=O)[C@@H]2[C@@H]1OC(=O)CCCCCCC`
[out] YES

[in] Same thing, different compound: `COC1=CC(C)=C[C@@H](C)[C@@H](O)[C@@H](C)CC(C)=CC=C[C@H](OC)[C@H]([C@@H](C)[C@@H](O)[C@H](C)[C@@]2(O)C[C@@H](O)[C@H](C)[C@@H](C(C)C)O2)OC1=O`
[out] YES

[in] Same thing, different compound: C#CC1(O)CCC2C3CCC4=CC(=O)CCC4(C)C3CCC21C (centres undefined)
[out] YES

[in] Same thing, different compound: COc1ccc2c(c1)[C@]13CCCCC1C(C2)N(C)CC3 (some centres undefined)
[out] NO

[in] Same thing, different compound: `Cc1c(C(=O)Nc2cccc(C(F)(F)F)c2)cc(-c2ccccc2)n1CCCN1CCOCC1`
[out] YES

[in] Same thing, different compound: `CC[C@@]1(O)C(=O)OCc2c1cc1n(c2=O)Cc2cc3ccccc3nc2-1`
[out] YES

[in] Same thing, different compound: `COc1ccc2c(c[n+](C)c3c4cc5c(cc4ccc23)OCO5)c1OC`
[out] YES
